# test-system: human ether-à-go-go-related gene (hERG) potassium channel (human, UniProt Q12809)
# Sequence (Q12809 whole entry, looked up): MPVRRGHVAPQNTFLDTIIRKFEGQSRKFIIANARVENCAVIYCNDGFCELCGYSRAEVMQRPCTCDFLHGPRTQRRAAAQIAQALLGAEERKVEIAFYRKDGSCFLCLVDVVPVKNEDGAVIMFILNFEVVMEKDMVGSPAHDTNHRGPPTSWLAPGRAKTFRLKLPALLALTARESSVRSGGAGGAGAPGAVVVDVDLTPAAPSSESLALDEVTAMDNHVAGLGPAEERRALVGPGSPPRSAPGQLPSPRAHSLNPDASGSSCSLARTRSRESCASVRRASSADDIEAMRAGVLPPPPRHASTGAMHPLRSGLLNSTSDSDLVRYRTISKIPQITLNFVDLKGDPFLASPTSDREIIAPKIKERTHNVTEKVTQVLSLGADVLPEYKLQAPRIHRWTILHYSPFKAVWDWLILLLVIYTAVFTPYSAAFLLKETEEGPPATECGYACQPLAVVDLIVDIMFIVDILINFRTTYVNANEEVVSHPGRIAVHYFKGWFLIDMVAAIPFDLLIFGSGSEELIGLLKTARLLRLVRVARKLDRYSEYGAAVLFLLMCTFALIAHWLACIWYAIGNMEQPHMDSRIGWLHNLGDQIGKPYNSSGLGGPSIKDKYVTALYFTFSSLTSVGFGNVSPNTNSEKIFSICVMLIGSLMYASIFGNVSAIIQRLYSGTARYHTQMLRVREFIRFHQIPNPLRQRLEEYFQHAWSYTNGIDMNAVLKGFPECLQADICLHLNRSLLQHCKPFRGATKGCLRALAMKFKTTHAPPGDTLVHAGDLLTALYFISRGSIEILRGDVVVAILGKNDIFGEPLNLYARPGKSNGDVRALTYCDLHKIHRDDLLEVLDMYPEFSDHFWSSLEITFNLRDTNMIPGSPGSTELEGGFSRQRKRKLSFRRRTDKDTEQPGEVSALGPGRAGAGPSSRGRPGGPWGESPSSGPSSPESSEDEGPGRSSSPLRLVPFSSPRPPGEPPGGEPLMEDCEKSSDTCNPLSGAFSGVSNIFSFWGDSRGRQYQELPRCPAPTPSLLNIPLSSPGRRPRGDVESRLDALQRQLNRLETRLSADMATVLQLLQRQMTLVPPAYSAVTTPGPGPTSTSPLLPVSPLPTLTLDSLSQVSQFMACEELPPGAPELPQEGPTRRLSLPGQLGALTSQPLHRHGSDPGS
# test-details: primary screen, population patch clamp on CHO cells stably expressing hERG; higher = less effect of the substance
Out of some 310,000 compounds screened, about 2,200 (0.71%) showed an effect of 50% or more. Effects have a minus sign here. The list comes from a sample in which strong results are over-represented; it also holds close analogues and randomly drawn compounds.
measured-property: hERG current change (%, negative = inhibition) at 1uM (%)

COc1nccc(-c2ccc(F)cc2)c1C#N: 16.9
CC(C)c1cc(C(=O)N2CCCC(N3CCN(c4ccc(F)cc4)CC3)C2)no1 (centres unmarked): -36.4
Cc1cc(C(=O)Nc2ccc(C(=O)O)cc2)c(-c2ccccc2)o1: -3.53
Cc1ccc2nc(C)cc(N/N=C/c3ccc(F)cc3)c2c1: 0.285
COc1ccc(C[C@H]2CN3C(=NC[C@@H]3C)N2CCNC(=O)CCC2CCCCC2)cc1: -63.7
CC(=O)c1c(C(C)=O)c(C)n(C(c2ccccc2)c2ccccc2)c1C: -4.36
Cc1nnc(C)c2c(C)n(C(C)c3ccccc3)c(C)c12 (centres unmarked): -1.28
O=C(c1cccs1)N1CCCC(N2CCN(c3cccc(C(F)(F)F)c3)CC2)C1 (centres unmarked): -8.83
CC(=O)c1ccc(C(=O)N2CCCC(N3CCN(c4ccc(F)cc4)CC3)C2)s1 (centres unmarked): -51.3
COc1ccc(C[C@H]2CN3C(=NC[C@H]3Cc3ccccc3)N2CCNC(=O)CCC2CCCCC2)cc1: -49.2
COc1ccc(-c2nnnn2C(C)C)cc1: 11.1
C[C@@H]1CN=C2N(CCNC(=O)CCC3CCCCC3)[C@H](Cc3ccc(O)cc3)CN21: 7.9
C/C=C(\C)C(=O)NCCN1C2=NC[C@H](C(C)C)N2C[C@@H]1Cc1ccc(OC)cc1: -46.6
COC(=O)[C@@H]1C[C@]2(OC(=O)c3ccccc3)C=CC(=O)C[C@@H]2N1C(=O)OCc1ccccc1: 11.9
COc1ccc(C(=O)C(Sc2nnc(C)c(=O)[nH]2)c2ccc(OC)cc2)cc1 (centres unmarked): 1.35
Fc1cccc(Cl)c1Cn1nnc2c(N3CCC4(CC3)OCCO4)ncnc21: 13.7
COc1ccc(C[C@H]2CN3C(=NC[C@@H]3Cc3ccc(O)cc3)N2C[C@H](C)NC(=O)CCC2CCCCC2)cc1: -14.9
Cc1nnc(C)c2c(C)n(C(c3ccccc3)c3ccccc3)c(C)c12: -65.7
CC(C)[C@H]1CN=C2N(CCNC(=O)CCC3CCCCC3)[C@H](Cc3ccc(O)cc3)CN21: -2.53
CC(=O)Nc1ccc(C(=O)NC2CCCC2)cc1: 6.35

// data source = paper PMC4336329
